The reported measurements were obtained from ChEMBL document CHEMBL1155192.

MEASURED_ON: Collagenase 3 (Homo sapiens)
TEST_PROTOCOL: Inhibition of human recombinant MMP13
MEASURE_NAME: IC50 (µM)

A. O=C(O)C[S+]([O-])CCc1ccc(-c2ccccc2)cc1 (stereo unspecified)
B. CSc1ccc(-c2ccc(CCC(O)CC(=O)O)cc2)cc1 (stereo unspecified)
C. O=C(O)CC(O)CCc1ccc(-c2ccccc2)cc1 (single isomer, unassigned)
D. O=C(O)CC(O)CCc1ccc(-c2ccc3c(c2)oc2ccccc23)cc1 (stereo unspecified)
QUERY: Would you mind ranking these compounds by ascending IC50? Put the labels in the requested order and write them down.
RESULT: B, C, D, A
(B: 1.13 µM, C: 9.99 µM, D: 33.5 µM, A: 95.9 µM)

====

Each record here notes measured pIC50.
MEASURED_ON: Matrilysin (Homo sapiens)
Sequence (P09237 whole entry): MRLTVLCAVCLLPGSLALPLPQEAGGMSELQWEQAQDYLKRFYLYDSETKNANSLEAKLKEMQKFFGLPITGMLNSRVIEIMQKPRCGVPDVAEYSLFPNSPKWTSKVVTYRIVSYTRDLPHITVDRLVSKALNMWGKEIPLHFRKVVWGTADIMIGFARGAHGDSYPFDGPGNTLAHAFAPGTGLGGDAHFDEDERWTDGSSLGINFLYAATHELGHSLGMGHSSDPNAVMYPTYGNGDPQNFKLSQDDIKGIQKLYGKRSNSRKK
TEST_PROTOCOL: Inhibition of human recombinant MMP7
pIC50: −log10 of the molar value.

Examples with answers:
QUERY: What value of pIC50 has been recorded for this entry: O=C(O)CC(O)CCc1ccc(-c2ccccc2)cc1 (racemic)
RESULT: < 4.01

QUERY: Field entry: O=C(O)CC(O)CCc1ccc(-c2ccccc2)cc1 (single isomer, unassigned)
RESULT: < 4.01

Okay, next one:
QUERY: Could you share which pIC50 value was measured for O=C(O)CC(O)CCc1ccc(-c2ccccc2)cc1 (stereo in doubt) ?
RESULT: < 4.01

====

MEASURED_ON: Collagenase 3 (Homo sapiens)
TEST_PROTOCOL: Inhibition of human recombinant MMP13
pIC50: −log10 of the molar value.
MEASURE_NAME: pIC50

QUERY: Reported pIC50 for N#Cc1cccc(-c2ccc(CCC(O)CC(=O)O)cc2)c1 (stereo unspecified) : what is it?
RESULT: 4.28

a. O=C(O)CSCCc1ccc(-c2ccccc2)cc1
b. N#Cc1ccc(-c2ccc(CCC(O)CC(=O)O)cc2)cc1 (stereo unspecified)
c. O=C(O)CS(=O)(=O)CCc1ccc(-c2ccccc2)cc1
QUERY: Provide the items ranked by increasing pIC50. Ranked list of labels, please, in the requested order.
RESULT: a, c, b

====

MEASURED_ON: Collagenase 3 (Homo sapiens, UniProt P45452)
TEST_PROTOCOL: Inhibition of human recombinant MMP13
MEASURE_NAME: IC50 (µM)

a. O=C(O)CC(O)CCc1ccc(-c2cc3ccccc3o2)cc1 (stereo unspecified)
b. CC(=O)c1ccc(-c2ccc(CCC(O)CC(=O)O)cc2)cc1 (stereo unspecified)
c. O=C(O)CC(O)CCc1ccc(-c2ccncc2)cc1 (stereo unspecified)
QUERY: Order by IC50, ascending. Returns: the labels arranged in the requested order.
RESULT: b, c, a
(b: 0.97 µM, c: 3.76 µM, a: 50.2 µM)

====

MEASURED_ON: 72 kDa type IV collagenase (Homo sapiens, UniProt P08253)
Sequence (P08253 whole entry): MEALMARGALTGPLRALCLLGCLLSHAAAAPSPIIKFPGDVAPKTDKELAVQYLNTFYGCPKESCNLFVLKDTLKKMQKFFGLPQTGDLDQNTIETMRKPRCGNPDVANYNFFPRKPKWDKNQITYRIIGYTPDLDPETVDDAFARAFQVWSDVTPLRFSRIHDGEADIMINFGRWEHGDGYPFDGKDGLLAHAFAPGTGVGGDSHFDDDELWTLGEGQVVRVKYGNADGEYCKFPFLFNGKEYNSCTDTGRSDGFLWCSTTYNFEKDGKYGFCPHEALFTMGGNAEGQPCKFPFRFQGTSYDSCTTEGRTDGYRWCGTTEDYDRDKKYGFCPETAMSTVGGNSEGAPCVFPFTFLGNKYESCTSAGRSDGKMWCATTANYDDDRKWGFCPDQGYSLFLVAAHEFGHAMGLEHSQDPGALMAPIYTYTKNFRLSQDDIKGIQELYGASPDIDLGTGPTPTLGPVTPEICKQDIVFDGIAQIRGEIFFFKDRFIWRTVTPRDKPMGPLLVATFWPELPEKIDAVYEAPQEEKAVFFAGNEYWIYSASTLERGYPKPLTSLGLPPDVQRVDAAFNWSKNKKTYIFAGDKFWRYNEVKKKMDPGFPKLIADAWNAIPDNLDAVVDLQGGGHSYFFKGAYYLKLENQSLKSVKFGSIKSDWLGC
TEST_PROTOCOL: Inhibition of human recombinant MMP2
MEASURE_NAME: pIC50
Lab note — pIC50 values are minus log10 of concentrations in M.

QUERY: Which pIC50 value belongs to O=C(O)CC(O)CCc1ccc(-c2ccccc2)cc1 (racemic) ?
RESULT: 5.34

====

TEST_PROTOCOL: Lipophilicity, log D at pH 6.2
Format: physicochemical
EXPERIMENTAL_SETUP: buffer
MEASURE_NAME: logD
API doc: respond with a numeric literal and nothing else, no unit.

QUERY: // query logD value for entry O=C(O)CC(O)CCc1ccc(-c2ccccc2)cc1 (racemic)
RESULT: 1.43
